# Tested on: 156681-154-R-J1 tumor spheroid viability;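 also: spheroids exposed to compounds for 7 days before readout; percent of vehicle control viability where 100% = DMSO-treated spheroids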
# assay.protocol: Anticancer human tumor 156681-154-R-J1 patient-derived melanoma cell line growth inhibition
# details: second compound 94.9 pM; first compound 10 µM; active compounds read low; spheroids with HUVEC and MSC
observation.type: viability, T/C (%)
State just the number; it will be interpreted in %.

Exercise: Find the recorded viability, T/C belonging to CC1COCCN1c1cc(-c2ccnn2C)c2ccnc(-c3ccn[nH]3)c2n1 (configuration not stated) + COc1cc2c(cc1O)CCNC21CSC2c3c(OC(C)=O)c(C)c4c(c3C(COC1=O)N1C(O)C3Cc5cc(C)c(OC)c(O)c5C(C21)N3C)OCO4 and report it.
Solution: 21.9

Exercise: Find the recorded viability, T/C belonging to COc1cc(C)[nH]c(=O)c1CN1CCc2c(Cl)cc(C(OC)C3COC3)c(Cl)c2C1=O (configuration not stated) + COc1cc2c(cc1O)CCNC21CSC2c3c(OC(C)=O)c(C)c4c(c3C(COC1=O)N1C(O)C3Cc5cc(C)c(OC)c(O)c5C(C21)N3C)OCO4 and report it.
Solution: 98.1

The origin of these recorded values is PubChem BioAssay AID1845195.
